# credit: patent US20220363770A1

Some binders, each annotated with its measured Cyno CGRP Receptor/Blank Cells Specific Binding.
# Measured on: T1, cynomolgus monkey CGRP receptor (cynomolgus monkey, UniProt A0A2K5VQ71 34-472)
# T1 construct: whole, on cells; Presented as detergent-solubilized lysate of HEK cells expressing the cynomolgus receptor; also called Cyno CGRP Receptor; Cynomolgus Monkey CGRP Receptor/HEK detergent-solubilized cell lysate
# Assay: yeast-displayed Fab, FACS, detergent-solubilized lysate of cynomolgus CGRP receptor/HEK cells vs blank cells
Reply with the number and its unit after it.

Binder: anti-CGRP receptor variant 11, yeast-displayed Fab (Fab, V domains shown, also called Variant Ab ID 11) VH: QVQLVESGGGVVQPGRSLRLSCAASGFWFDTFGMHWVRQAPGKGLEWVAVISFAGEDTHYVDSVKGRFTISRDNSKNTLFLQMNSLRAEDTAVYYCARDRLNYYESYGYYGYHYYGMAVWGQGTTVTVSS VL: QSVLTQPPSVSAAPGQKVTISCSGSRSNIGRYSVSWYQQLPGTAPKLLIYENMFRPRGIPDRFSGSKSGTSATLGITGLQTGDEADYYCGTWDYRMQAVVFGGGTKLTVLG
Result: 5.3 ratio

// moving on: another record for Cyno CGRP Receptor/Blank Cells Specific Binding
Request: Endpoint output: Cyno CGRP Receptor/Blank Cells Specific Binding of anti-CGRP receptor variant 12, yeast-displayed Fab (Fab, V domains shown, also called Variant Ab ID 12) VH: QVQLVESGGGVVQPGRSLRLSCAASGFTFSSFGMHWVRQAPGKGLEWVAVISFDGSIKYSVDSVKGRFTISRDNSKNTLFLQMNSLRAEDTAVYYCARDRLNYYESSGYYHYKYYGMAVWGQGTTVTVSS VL: QSVLTQPPSVSAAPGQKVTISCSGSRSNIGRYSVSWYQQLPGTAPKLLIYDNRYRAQGIPDRFSGSKSGTSATLGITGLQTGDEADYYCGTWDWATTSVVFGGGTKLTVLG . Value?
Response: 10.3 ratio
